# EXPERIMENTAL_SYSTEM: T1, CTLA-4-hFc (immunogen A; hFc-labeled CTLA-4 extracellular domain protein) (human, UniProt P16410 36-161)
# T1 construct: range 36-161; Made in HEK293 cells, purified on protein A; also called CLTA-4-hFc; CTLA-4 protein; not shown: human IgG Fc fragment (hFc) of the pCpC vector
# T1 sequence (looked up): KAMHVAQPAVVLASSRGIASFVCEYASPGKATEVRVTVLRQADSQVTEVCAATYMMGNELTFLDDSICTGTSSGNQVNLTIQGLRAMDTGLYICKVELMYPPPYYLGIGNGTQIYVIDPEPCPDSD
# ASSAY_COMMENT: blocking assay, CTLA-4 protein, competitor B7.2
# Procedure: CTLA-4 extracellular domain protein (CTLA-4-hFc) was diluted with PBS to a final concentration of 1.0 μg/mL, and then added to a 96-well ELISA plate as 100 μl per well. The plate was covered with a plastic film and incubated overnight at 4° C. […] An ELISA plate reader (SpectraMax 384plus, Molecular Device) was used to read the A450 nm value.
MEASURED_QUANTITY: % Block at 0.0128 nM (%)
Respond with the bare value in %.

Below, 2 binders whose answers are already recorded.
97A8D1 fully human CTLA-4 antibody (human IgG1, kappa) (antibody, V domains shown, also called mAb49; mAb049) VH: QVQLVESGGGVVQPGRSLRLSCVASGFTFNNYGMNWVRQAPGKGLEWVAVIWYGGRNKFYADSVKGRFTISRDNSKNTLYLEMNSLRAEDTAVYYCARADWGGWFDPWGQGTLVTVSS VL: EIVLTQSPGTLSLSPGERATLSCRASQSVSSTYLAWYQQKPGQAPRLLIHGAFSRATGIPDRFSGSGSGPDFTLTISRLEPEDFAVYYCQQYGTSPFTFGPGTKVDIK :: 33
40C4C6 fully human CTLA-4 antibody (human IgG1, kappa) (antibody, V domains shown, also called mAb09; mAb009) VH: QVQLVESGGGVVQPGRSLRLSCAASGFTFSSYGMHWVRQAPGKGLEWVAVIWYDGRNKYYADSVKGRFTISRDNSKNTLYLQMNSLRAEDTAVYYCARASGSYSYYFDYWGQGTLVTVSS VL: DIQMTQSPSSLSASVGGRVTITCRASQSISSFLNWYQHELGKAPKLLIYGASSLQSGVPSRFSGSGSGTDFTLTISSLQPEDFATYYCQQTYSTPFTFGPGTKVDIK :: 30

Exercise: % Block at 0.0128 nM lookup needed for 31C12F3 fully human CTLA-4 antibody (human IgG1, kappa) (antibody, V domains shown, also called mAb010) VH: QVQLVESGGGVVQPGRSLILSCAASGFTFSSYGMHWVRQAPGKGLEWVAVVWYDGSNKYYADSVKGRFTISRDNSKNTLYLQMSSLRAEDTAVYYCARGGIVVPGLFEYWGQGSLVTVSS VL: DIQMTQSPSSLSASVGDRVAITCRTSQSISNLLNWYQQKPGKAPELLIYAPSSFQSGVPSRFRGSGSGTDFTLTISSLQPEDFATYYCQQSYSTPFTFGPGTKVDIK , thanks.
Solution: 25.6

Exercise: % Block at 0.0128 nM lookup needed for 92C8B6 fully human CTLA-4 antibody (human IgG1, kappa) (antibody, V domains shown, also called mAb42; mAb042) VH: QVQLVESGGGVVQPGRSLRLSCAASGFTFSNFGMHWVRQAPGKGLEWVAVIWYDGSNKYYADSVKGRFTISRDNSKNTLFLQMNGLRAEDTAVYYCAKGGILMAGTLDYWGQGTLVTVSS VL: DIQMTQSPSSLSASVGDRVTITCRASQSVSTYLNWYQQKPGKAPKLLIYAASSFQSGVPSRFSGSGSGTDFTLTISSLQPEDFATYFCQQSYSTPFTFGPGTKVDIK , thanks.
Solution: 25

These entries and their values trace back to patent US20210324080A1.
